TARGET_OR_TEST_SYSTEM: Peregrin (Homo sapiens) (UniProt P55201)
Sequence (whole entry): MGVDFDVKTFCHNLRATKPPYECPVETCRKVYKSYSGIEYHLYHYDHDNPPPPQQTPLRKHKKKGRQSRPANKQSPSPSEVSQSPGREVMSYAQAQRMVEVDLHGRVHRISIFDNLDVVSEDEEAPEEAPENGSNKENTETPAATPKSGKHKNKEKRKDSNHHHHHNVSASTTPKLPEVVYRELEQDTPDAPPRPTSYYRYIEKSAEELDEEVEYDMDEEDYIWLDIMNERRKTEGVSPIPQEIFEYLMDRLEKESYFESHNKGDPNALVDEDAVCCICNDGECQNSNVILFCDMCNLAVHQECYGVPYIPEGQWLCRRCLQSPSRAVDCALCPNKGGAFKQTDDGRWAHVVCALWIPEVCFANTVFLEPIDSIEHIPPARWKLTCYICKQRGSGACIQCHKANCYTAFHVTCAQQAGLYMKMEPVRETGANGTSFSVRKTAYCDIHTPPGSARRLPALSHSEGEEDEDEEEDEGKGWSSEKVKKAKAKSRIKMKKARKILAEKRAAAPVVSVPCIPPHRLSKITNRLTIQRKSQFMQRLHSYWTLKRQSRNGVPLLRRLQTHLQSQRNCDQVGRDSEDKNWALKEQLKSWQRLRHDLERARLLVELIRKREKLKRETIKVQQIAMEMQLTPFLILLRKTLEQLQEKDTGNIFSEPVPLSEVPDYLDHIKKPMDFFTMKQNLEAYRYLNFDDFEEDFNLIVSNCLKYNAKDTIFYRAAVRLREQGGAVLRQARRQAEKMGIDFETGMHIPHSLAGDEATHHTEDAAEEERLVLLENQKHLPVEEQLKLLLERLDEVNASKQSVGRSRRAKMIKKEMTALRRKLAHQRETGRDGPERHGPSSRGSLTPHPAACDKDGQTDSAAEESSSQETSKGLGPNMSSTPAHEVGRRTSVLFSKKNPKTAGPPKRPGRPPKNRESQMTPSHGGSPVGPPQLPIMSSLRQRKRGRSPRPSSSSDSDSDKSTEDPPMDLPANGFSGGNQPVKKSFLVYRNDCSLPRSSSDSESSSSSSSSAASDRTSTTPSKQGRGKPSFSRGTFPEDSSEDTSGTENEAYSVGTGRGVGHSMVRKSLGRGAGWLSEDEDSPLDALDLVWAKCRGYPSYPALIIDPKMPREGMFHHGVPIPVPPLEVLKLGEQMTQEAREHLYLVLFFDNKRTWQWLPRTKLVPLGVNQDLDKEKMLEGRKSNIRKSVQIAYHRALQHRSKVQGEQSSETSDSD
MEASUREMENT_CONTEXT: Compound concentration 20.0 uM
OBSERVATION_TYPE: ΔTm (°C)
A number alone suffices; assume °C.

# MOLECULE_SMILES, TARGET_OR_TEST_SYSTEM, UNIT_TAG, ΔTm
rows = [
    ("Cc1noc2c1-c1ccccc1C(c1ccc(Cl)cc1)=N[C@H]2CC(N)=O", "Peregrin (Homo sapiens) (UniProt P55201)", "°C", 2.09),
]

Now for another entry.
Exercise: Any idea what its ΔTm is? The molecule is `Cc1cc(C(=O)N2CCN(C3CN(C(=O)c4ccc(-c5ccccc5)cc4)C3)CC2)no1`
Solution: -1.49
